The reported measurements were obtained from paper PMC12174897.

- Tested on: HDAC activity of HeLa nuclear extract
- test_summary: Fluor de Lys-Green HDAC assay kit, HDAC inhibition
- Assay type: biochemical
- condition_info: mean from three assays, errors 5%–10%
- Protocol: HeLa nuclear extract, rich in HDAC activity, is included with the kit. Trichostatin A solution was used as a positive control and model inhibitor. Plates were read with excitation at 380 nm and emission at 440 nm on a TECAN Spark multimode microplate reader. Histone deacetylase activity was measured according to the manufacturer's instructions. HeLa nuclear extract, rich in HDAC activity, is included with the kit. […] Histone deacetylase activity was measured according to manufacturer's instructions.
recorded_endpoint: pEC50
Lab note: report pEC50 as minus log10 of the concentration in molar units, number only.

Completed entries (count: 2):
smiles_data | target_under_test | numeric_result
Nc1ccccc1NC(=O)c1ccc(NCC(=O)NCCc2ccccc2)cc1 | HDAC activity of HeLa nuclear extract | 4.85
Nc1ccccc1NC(=O)c1ccc(NC(=O)NCCc2c[nH]cn2)cc1.O=C(O)C(F)(F)F | HDAC activity of HeLa nuclear extract | 5.55

Here is another molecule to look at.
Input: Which measured pEC50 value corresponds to Nc1cc(F)ccc1NC(=O)c1ccc(NC(=O)NCCc2c[nH]cn2)cc1.[O-][Cl+3]([O-])([O-])O.[O-][Cl+3]([O-])([O-])O ?
Output: 5.28

* * *

- target_under_test: hCA IV (Homo sapiens)
- Construct: made in house
- Sequence (P22748 19-312): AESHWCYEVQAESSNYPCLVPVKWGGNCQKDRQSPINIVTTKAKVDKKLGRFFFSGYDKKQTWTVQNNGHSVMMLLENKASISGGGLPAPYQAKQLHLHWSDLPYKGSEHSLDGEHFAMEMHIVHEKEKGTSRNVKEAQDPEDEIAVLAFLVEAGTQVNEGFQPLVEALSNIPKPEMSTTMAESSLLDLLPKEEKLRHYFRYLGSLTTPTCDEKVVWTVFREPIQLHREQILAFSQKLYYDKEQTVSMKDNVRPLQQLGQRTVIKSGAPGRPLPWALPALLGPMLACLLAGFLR
- test_summary: stopped-flow CO2 hydrase assay, CA activation
- Format: biochemical
- condition_info: activation constant; mean from three assays, errors ±5%–10%
K A hCA IV: recorded values

Here is how some compounds turned out for K A hCA IV.
compound | result
Nc1ccccc1NC(=O)c1ccc(NCC(=O)NCCc2ccccc2)cc1 | > 10000 µM
N[C@H](Cc1ccccc1)C(=O)O [D‐Phe, reference compound] | 49.3 µM

Input: For hCA IV (Homo sapiens), provide K A hCA IV of Nc1cc(F)ccc1NC(=O)c1ccc(NC(=O)NCCc2c[nH]cn2)cc1.[O-][Cl+3]([O-])([O-])O.[O-][Cl+3]([O-])([O-])O please.
Output: 49.1 µM

Input: Find the measured K A hCA IV: item Nc1ccccc1NC(=O)c1ccc(NC(=O)NCCc2c[nH]cn2)cc1.O=C(O)C(F)(F)F , target or system hCA IV (Homo sapiens).
Output: 23.0 µM

* * *

- System: Male C57Bl6 mice
- test_summary: Novel object recognition (NOR) paradigm, memory consolidation
- Format: in vivo
- condition_info: 50 nmol/μL, 5 µL i.c.v. immediately after acquisition; retention test 24 h later
recorded_endpoint: percentage of time spent exploring familiar vs novel object, retention test

molecule | target_under_test | result
N[C@H](Cc1ccccc1)C(=O)O [D‐Phe, reference compound] | Male C57Bl6 mice | promnesic effect
Nc1ccccc1NC(=O)c1ccc(NCC(=O)NCCc2ccccc2)cc1 [Compound 19] | Male C57Bl6 mice | promnesic effect
